Data provenance is PubChem BioAssay (NCI).

Tested on: NCI-H23 lung
Assay: NCI-60 one-dose screen, 48 h
Condition set: 10 µM unless noted
The panel holds about 83,000 compounds, 20% with a hit somewhere; the sample as a whole holds those more often. Activity calls are given as the source filed them. Rule for the calls: active = growth percent below 10; inactive = the rest.
I would appreciate it if you answered using one of these outcomes: true (1) = active, false (0) = inactive

Answered cases to consult:
COc1cc(/C=C/c2cc(/C=C/c3ccc(O)c(OC)c3)n(C(=O)Cc3ccccc3)n2)ccc1O: true (1)
[N-]=[N+]=NCc1cccc(/C(O)=C/C(=O)C(=O)O)c1: false (0)
Cc1n(Cc2ccc3ccccc3c2)c2ccccc2[n+]1Cc1ccc2ccccc2c1: true (1)
COc1cccc(C=Nc2cc(C(C)C)c(O)cc2C)c1O: false (0)
O=C(/C=C(\Nc1ccccc1)c1ccccc1)c1cn(-c2ccc([N+](=O)[O-])cc2)nn1: false (0)

Returns: the outcome recorded for `O=C1NC(=O)/C(=C\c2ccco2)S1` in this assay.
false (0)

Returns: the outcome recorded for `COc1cc(-c2nc3sc4c(c3c(=O)[nH]2)CCCCCC4)cc(OC)c1OC` in this assay.
false (0)

Returns: the outcome recorded for `Nc1nc(Nc2ccccc2SSc2ccccc2Nc2nc(N)nc(-c3ccc(I)cc3)n2)nc(-c2ccc(I)cc2)n1` in this assay.
false (0)

Returns: the outcome recorded for `O=C1NCCc2c1noc2-c1ccccc1` in this assay.
false (0)

Returns: the outcome recorded for `O=C1c2cccc3c([N+](=O)[O-])ccc(c23)C(=O)N1CCCCl` in this assay.
true (1)
